Study System: acetylcholinesterase (AChE) (Homo sapiens)
Sequence (P22303 32-614, species assumed): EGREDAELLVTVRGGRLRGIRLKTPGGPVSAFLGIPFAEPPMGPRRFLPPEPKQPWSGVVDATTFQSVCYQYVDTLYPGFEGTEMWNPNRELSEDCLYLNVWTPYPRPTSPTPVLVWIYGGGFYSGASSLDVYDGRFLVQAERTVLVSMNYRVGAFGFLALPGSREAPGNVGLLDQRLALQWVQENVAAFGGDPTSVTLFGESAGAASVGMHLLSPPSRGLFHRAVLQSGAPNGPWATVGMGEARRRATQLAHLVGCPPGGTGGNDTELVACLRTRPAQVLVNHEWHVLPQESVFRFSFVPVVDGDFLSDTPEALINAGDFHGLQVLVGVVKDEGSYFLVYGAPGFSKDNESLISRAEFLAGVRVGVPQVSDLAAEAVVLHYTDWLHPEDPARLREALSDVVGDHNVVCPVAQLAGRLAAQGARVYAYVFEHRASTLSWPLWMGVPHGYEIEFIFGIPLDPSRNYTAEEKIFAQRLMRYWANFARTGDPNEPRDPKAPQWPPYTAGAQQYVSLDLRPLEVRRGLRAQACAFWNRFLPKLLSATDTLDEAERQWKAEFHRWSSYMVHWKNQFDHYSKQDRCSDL
Assay type: biochemical
Condition Description: at 100 µM
Recorded Endpoint: Anti ACHE % (%)
Report as a plain number; the unit % is understood.

Data point: O=c1cc(-c2ccccc2)oc2cc(O)cc(O)c12 [Molecule M1, 5,7-dihydroxyflavone] ; Anti ACHE % = 45.8

Recorded Anti ACHE % (molecule Cc1ccc2oc(-c3cccc(O)c3)cc(=O)c2c1 [Molecule M16, 3′-hydroxy-6-methylflavone] ): 59.1

The recorded Anti ACHE % for O=c1cc(-c2cccc(O)c2)oc2cccc(O)c12 [Molecule M14, 5,3′-dihydroxyflavone] is 55.0

Short answer for CC1OC(Oc2c(-c3cc(O)c(O)c(O)c3)oc3cc(O)cc(O)c3c2=O)C(O)C(O)C1O (stereo not shown) [Molecule M20, myricitrin dihydrate] : Anti ACHE % was 51.8

----------
Tested on: SKOV-3 cells
Measurement Protocol: Cytotoxic activity, MTT assay, SKOV-3
Assay type: cell-based, human
Condition Description: read-out: IC50 SKOV-3; MTT, 72 h
pIC50: −log10 of the molar value.
For each entry below, report its pIC50 value.

Known value: SKOV-3 cells pIC50 of the compound COc1cccc(-c2cc(=O)c3c(O)cccc3o2)c1 [Molecule M11, 5-hydroxy-3′-methoxyflavone] equals < 4.30

Summary: O=c1cc(-c2ccccc2)oc2ccc(O)cc12 [Molecule M3, 6-hydroxyflavone] , SKOV-3 cells, pIC50 = < 4.30

Kindly note: SKOV-3 cells, O=c1cc(-c2cccc(O)c2)oc2cccc(O)c12 [Molecule M14, 5,3′-dihydroxyflavone] , pIC50 value reported: < 4.30

----------
Study System: xanthine oxidase (XOD) (Homo sapiens, UniProt P47989)
Sequence (P47989 whole entry, species assumed): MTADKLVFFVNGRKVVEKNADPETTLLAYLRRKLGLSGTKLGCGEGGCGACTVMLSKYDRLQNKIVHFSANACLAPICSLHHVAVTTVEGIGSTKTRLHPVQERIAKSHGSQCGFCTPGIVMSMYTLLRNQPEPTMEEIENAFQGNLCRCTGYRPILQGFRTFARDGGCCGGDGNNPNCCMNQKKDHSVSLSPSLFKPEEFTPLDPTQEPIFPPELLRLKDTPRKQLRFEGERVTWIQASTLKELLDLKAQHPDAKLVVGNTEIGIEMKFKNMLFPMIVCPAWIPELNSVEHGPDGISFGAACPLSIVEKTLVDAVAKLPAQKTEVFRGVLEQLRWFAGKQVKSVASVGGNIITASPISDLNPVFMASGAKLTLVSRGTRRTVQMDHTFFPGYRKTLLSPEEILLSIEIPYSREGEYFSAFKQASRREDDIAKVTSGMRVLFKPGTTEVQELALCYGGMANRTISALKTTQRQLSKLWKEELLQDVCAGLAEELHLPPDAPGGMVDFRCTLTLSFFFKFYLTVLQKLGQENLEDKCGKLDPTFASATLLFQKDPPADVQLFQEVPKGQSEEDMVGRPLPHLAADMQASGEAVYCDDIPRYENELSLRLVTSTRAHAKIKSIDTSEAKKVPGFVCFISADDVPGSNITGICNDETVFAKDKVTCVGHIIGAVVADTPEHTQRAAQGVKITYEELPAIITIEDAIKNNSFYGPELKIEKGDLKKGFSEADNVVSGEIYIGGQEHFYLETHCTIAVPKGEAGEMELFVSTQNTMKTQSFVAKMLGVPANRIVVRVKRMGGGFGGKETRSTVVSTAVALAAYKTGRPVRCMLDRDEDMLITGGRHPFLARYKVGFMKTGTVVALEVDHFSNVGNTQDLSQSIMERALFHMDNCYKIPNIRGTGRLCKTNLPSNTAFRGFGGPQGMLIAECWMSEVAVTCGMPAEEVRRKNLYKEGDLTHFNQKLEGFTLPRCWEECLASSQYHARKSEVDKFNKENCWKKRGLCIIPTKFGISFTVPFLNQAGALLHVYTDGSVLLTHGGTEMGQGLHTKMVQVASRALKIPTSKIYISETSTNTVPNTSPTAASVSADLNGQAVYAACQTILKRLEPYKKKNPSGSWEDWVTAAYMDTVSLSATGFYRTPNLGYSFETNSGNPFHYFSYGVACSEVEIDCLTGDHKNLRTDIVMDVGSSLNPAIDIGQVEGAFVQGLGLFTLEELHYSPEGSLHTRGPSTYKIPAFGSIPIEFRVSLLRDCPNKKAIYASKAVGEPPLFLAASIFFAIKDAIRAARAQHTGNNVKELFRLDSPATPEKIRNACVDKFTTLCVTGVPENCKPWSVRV
Measurement Protocol: biochemical
pIC50: −log10 of the molar value.
Hi there, I'd appreciate the recorded pIC50 for every entry that follows.

The measured pIC50 associated with O=c1cc(-c2ccccc2)oc2cccc(O)c12 [Molecule M4, 5-hydroxyflavone] reads < 4.00

# pIC50 (molecule: O=c1cc(-c2ccccc2)oc2cc(O)cc(O)c12 [Molecule M1, 5,7-dihydroxyflavone] ) is < 4.00

----------
Exercise: state measured Anti SOD % for each of the compounds provided.
Study System: superoxide dismutase (SOD) (Homo sapiens)
Sequence (P00441 whole entry): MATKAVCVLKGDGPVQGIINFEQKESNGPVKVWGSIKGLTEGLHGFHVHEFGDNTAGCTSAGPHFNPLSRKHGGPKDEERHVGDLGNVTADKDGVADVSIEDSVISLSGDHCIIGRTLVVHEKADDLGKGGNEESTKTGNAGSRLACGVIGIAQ
Format: biochemical
Condition Description: at 100 µM
Numeric only. Scale: %

Per the record, `COc1ccc(-c2oc3c(CC=C(C)C)c(O[C@@H]4O[C@H](CO)[C@@H](O)[C@H](O)[C@H]4O)cc(O)c3c(=O)c2O[C@@H]2O[C@@H](C)[C@H](O)[C@@H](O)[C@H]2O)cc1` has Anti SOD % of 61.7

Anti SOD % measured on O=c1cc(-c2ccccc2)oc2cc(O)cc(O)c12 [Molecule M1, 5,7-dihydroxyflavone] = 41.5

Entry under test: `COc1ccc(-c2cc(=O)c3c(O)cc(O[C@@H]4O[C@H](CO[C@@H]5O[C@@H](C)[C@H](O)[C@@H](O)[C@H]5O)[C@@H](O)[C@H](O)[C@H]4O)cc3o2)cc1O` . Its Anti SOD % was 57.8

Form field Anti SOD %, entry O=c1cc(-c2cccc(O)c2)oc2cccc(O)c12 [Molecule M14, 5,3′-dihydroxyflavone] : 5.7

The compound listed as O=c1cc(-c2ccccc2)oc2cccc(O)c12 [Molecule M4, 5-hydroxyflavone] shows Anti SOD % equal to 25.9

Value of Anti SOD % reported for the compound O=c1cc(-c2cc(O)cc(O)c2)oc2ccccc12 [Molecule M8, 3′,5′-dihydroxyflavone] is 52.3

The compound O=c1cc(-c2cccc(O)c2)oc2cc(O)ccc12 [Molecule M13, 7,3′-dihydroxyflavone] showed Anti SOD % equal to 56.6

Sample Cc1ccc(-c2cc(=O)c3cc(O)ccc3o2)cc1 [Molecule M17, 6-hydroxy-4′-methylflavone] ; Anti SOD % observed: 80.9

The value of Anti SOD % measured for the compound CC1OC(OCC2OC(Oc3c(-c4ccc(OCCO)c(OCCO)c4)oc4cc(OCCO)cc(O)c4c3=O)C(O)C(O)C2O)C(O)C(O)C1O (centres unmarked) [Molecule M6, trihydroxyethylrutin] turned out to be 53.7

Anti SOD % recorded for this compound, COc1cccc(-c2cc(=O)c3c(O)cccc3o2)c1 [Molecule M11, 5-hydroxy-3′-methoxyflavone] , is 9.4

The compound identified as O=c1cc(-c2cccc(O)c2)oc2ccc3ccccc3c12 [Molecule M9, 3′-hydroxy-b-naphthoflavone] registered its Anti SOD % at 19.8

// Anti SOD % lookup, compound = Cc1ccc2oc(-c3cccc(O)c3)cc(=O)c2c1 [Molecule M16, 3′-hydroxy-6-methylflavone] , result: 27.3

Please fill in: Anti SOD % reported for O=c1cc(-c2ccccc2)oc2cc(O)c(O)c(O)c12 [Molecule M7, 5,6,7-trihydroxyflavone] = 71.2

Briefly, Anti SOD % measured for CC1OC(Oc2c(-c3cc(O)c(O)c(O)c3)oc3cc(O)cc(O)c3c2=O)C(O)C(O)C1O (centres unmarked) [Molecule M20, myricitrin dihydrate] : 42.4

----------
Study System: UniProt:P47989
Measurement Protocol: biochemical
Condition Description: read-out: Anti XOD IC50
Recorded Endpoint: IC50

The reported value for O=c1cc(-c2cccc(O)c2)oc2cc(O)ccc12 [Molecule M13, 7,3′-dihydroxyflavone] in terms of IC50 is 900 nM

GET /value?item= O=c1cc(-c2ccccc2)oc2ccc(O)cc12 [Molecule M3, 6-hydroxyflavone] &field=IC50 returns > 100000 nM

Per the records, this molecule ( Cc1ccc(-c2cc(=O)c3cc(O)ccc3o2)cc1 [Molecule M17, 6-hydroxy-4′-methylflavone] ) has IC50 equal to 800 nM

Consider COc1cccc(-c2cc(=O)c3c(O)cccc3o2)c1 [Molecule M11, 5-hydroxy-3′-methoxyflavone] . Its measured IC50 is > 100000 nM

GET /value?item= CC1OC(Oc2c(-c3cc(O)c(O)c(O)c3)oc3cc(O)cc(O)c3c2=O)C(O)C(O)C1O (stereo not shown) [Molecule M20, myricitrin dihydrate] &field=IC50 returns > 100000 nM

So for COc1ccc(-c2cc(=O)c3c(O)cc(O[C@@H]4O[C@H](CO[C@@H]5O[C@@H](C)[C@H](O)[C@@H](O)[C@H]5O)[C@@H](O)[C@H](O)[C@H]4O)cc3o2)cc1O [Molecule M19] , the logged IC50 turned out to be > 100000 nM

The molecule CC1OC(OCC2OC(Oc3c(-c4ccc(OCCO)c(OCCO)c4)oc4cc(OCCO)cc(O)c4c3=O)C(O)C(O)C2O)C(O)C(O)C1O (stereo not shown) [Molecule M6, trihydroxyethylrutin] showed IC50 equal to > 100000 nM

What the record says about O=c1cc(-c2cc(O)cc(O)c2)oc2ccccc12 [Molecule M8, 3′,5′-dihydroxyflavone] : IC50 is 2300 nM

Record O=c1cc(-c2cccc(O)c2)oc2cccc(O)c12 [Molecule M14, 5,3′-dihydroxyflavone] , field IC50: 2000 nM

Entry COc1ccc(-c2oc3c(CC=C(C)C)c(O[C@@H]4O[C@H](CO)[C@@H](O)[C@H](O)[C@H]4O)cc(O)c3c(=O)c2O[C@@H]2O[C@@H](C)[C@H](O)[C@@H](O)[C@H]2O)cc1 [Molecule M2, Icariin] — recorded IC50 = > 100000 nM

----------
Study System: xanthine oxidase (XOD) (Homo sapiens, UniProt P47989)
Measurement Protocol: biochemical
Condition Description: read-out: Anti XOD IC50
pIC50: −log10 of the molar value.
Recorded Endpoint: pIC50

The reported pIC50 of the compound O=c1cc(-c2cccc(O)c2)oc2ccc3ccccc3c12 [Molecule M9, 3′-hydroxy-b-naphthoflavone] was < 4.00

So, Cc1cccc(COc2cc(O)c3c(=O)cc(-c4ccccc4)oc3c2)c1 [Molecule M15] ? Its pIC50 was < 4.00

So for Cc1ccc2oc(-c3cccc(O)c3)cc(=O)c2c1 [Molecule M16, 3′-hydroxy-6-methylflavone] , the logged pIC50 turned out to be 5.70

Looking up O=c1cc(-c2ccccc2)oc2cc(O)ccc12 [Molecule M5, 7-hydroxyflavone] , I see its pIC50 listed as < 4.00

The recorded pIC50 for COc1cc(O)c2c(=O)cc(-c3ccc(O)cc3)oc2c1 [Molecule M12, 4′,5-dihydroxy-7-methoxyflavone] is 5.92

For reference, reported pIC50 for COc1cc(-c2cc(=O)c3ccc4c(O)cccc4c3o2)cc(OC)c1OC [Molecule M18] stands at < 4.00

Briefly, pIC50 measured for O=c1cc(-c2cccc(O)c2)oc2c1ccc1ccccc12 [Molecule M10, 3′-hydroxy-a-naphthoflavone] : < 4.30

The value of pIC50 measured for the compound O=c1cc(-c2ccccc2)oc2cc(O)c(O)c(O)c12 [Molecule M7, 5,6,7-trihydroxyflavone] turned out to be < 4.00

----------
Study System: xanthine oxidase (XOD) (Homo sapiens, UniProt P47989)
Format: biochemical
Condition Description: at 100 µM
Recorded Endpoint: Anti XOD % (%)
Give just the numeric value; % need not be written.

Reported Anti XOD % of O=c1cc(-c2cccc(O)c2)oc2c1ccc1ccccc12 [Molecule M10, 3′-hydroxy-a-naphthoflavone] : 58.8

# Anti XOD % of `COc1cc(-c2cc(=O)c3ccc4c(O)cccc4c3o2)cc(OC)c1OC` = 19.4

// Anti XOD % lookup, compound = O=c1cc(-c2cccc(O)c2)oc2cccc(O)c12 [Molecule M14, 5,3′-dihydroxyflavone] , result: 71.3

Recorded Anti XOD % (compound O=c1cc(-c2cccc(O)c2)oc2cc(O)ccc12 [Molecule M13, 7,3′-dihydroxyflavone] ): 64.2

Sure, the documented Anti XOD % for Cc1ccc2oc(-c3cccc(O)c3)cc(=O)c2c1 [Molecule M16, 3′-hydroxy-6-methylflavone] is 83.5

get_value(item= CC1OC(Oc2c(-c3cc(O)c(O)c(O)c3)oc3cc(O)cc(O)c3c2=O)C(O)C(O)C1O (stereo not shown) [Molecule M20, myricitrin dihydrate] , readout=Anti XOD %) returns 30.9

Measured Anti XOD % of Cc1ccc(-c2cc(=O)c3cc(O)ccc3o2)cc1 [Molecule M17, 6-hydroxy-4′-methylflavone] : 67.7
